target: CIB1 and αIIb interaction (GST-CIB1 : F-αIIb peptide) (Homo sapiens, UniProt Q99828); construct: made in house; host or cells: BL-21 plus RIL cells (E. coli); assay: FP assay, 384-well format (screen); format: binding; parameters: concentration or dose not given beside the values; details: F-αIIb peptide

[
  {
    "compound": "Cl.NC(CO)(CO)CCc1ccc(Sc2cccc(OCc3ccccc3)c2)cc1Cl [NCGC00250388-02]",
    "384-well SCREEN Efficacy (%)": 57
  },
  {
    "compound": "CN1CCCN=C1/C=C/c1cccs1.O=C(O)c1cc2ccccc2c(Cc2c(O)c(C(=O)O)cc3ccccc23)c1O [NCGC00094552-04]",
    "384-well SCREEN Efficacy (%)": 24
  },
  {
    "compound": "Cc1ccc(S(=O)(=O)Nc2cc([N+](=O)[O-])ccc2C(=O)Nc2nc(-c3ccccc3)cs2)cc1.O=C(O)C(F)(F)F [NCGC00262992-01]",
    "384-well SCREEN Efficacy (%)": 135
  },
  {
    "compound": "Cl.O=C1c2c(O)ccc(O)c2C(=O)c2c(NCCNCCO)ccc(NCCNCCO)c21 [NCGC00015693-04]",
    "384-well SCREEN Efficacy (%)": 80
  },
  {
    "compound": "CC(C)=CCC[C@]1(C)C=Cc2c(O)c3c(c(CC=C(C)C)c2O1)O[C@]12C(=C[C@@H]4CC1C(C)(C)O[C@@]2(C/C=C(/C)C(=O)O)C4=O)C3=O [NCGC00485239-01]",
    "384-well SCREEN Efficacy (%)": 60
  },
  {
    "compound": "O=C(O)C(F)(F)F.OCc1ccc(-c2ccc3ncnc(NCc4nccs4)c3c2)o1 [NCGC00238383-01]",
    "384-well SCREEN Efficacy (%)": 69
  },
  {
    "compound": "COc1cccc(-n2c(SCc3cc(=O)oc4cc(O)c(O)cc34)nc3ccccc3c2=O)c1.O=C(O)C(F)(F)F [NCGC00371345-01]",
    "384-well SCREEN Efficacy (%)": 73
  }
]

* * *

Target: CIB1 and αIIb interaction (CIB1-GST : F-αIIb peptide) (Homo sapiens, UniProt Q99828)
Construct: made in house; host or cells: BL-21 plus RIL cells (E. coli)
Sequence (Q99828 1-191): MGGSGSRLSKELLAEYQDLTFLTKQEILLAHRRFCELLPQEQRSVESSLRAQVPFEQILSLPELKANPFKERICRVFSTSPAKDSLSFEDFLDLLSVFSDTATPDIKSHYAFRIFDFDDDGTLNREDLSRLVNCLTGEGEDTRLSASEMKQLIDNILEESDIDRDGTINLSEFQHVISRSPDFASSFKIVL
Test: FP assay, 1536-well qHTS format (primary and confirmatory screen)
Assay type: binding
Settings: confirmatory screen, YES/NO
endpoint-label: Confirm? (confirmatory screen)

[
  {
    "compound": "CNc1ccc([N+](=O)[O-])c(Nc2ccc3[nH]ncc3c2)n1 [NCGC00387499-01]",
    "result": "YES"
  },
  {
    "compound": "Oc1ccc(-c2nnn[nH]2)c2cccnc12 [NCGC00184885-01]",
    "result": "YES"
  },
  {
    "compound": "O=C(Nc1nc(-c2ccccc2)cs1)c1ccncc1NS(=O)(=O)c1cccs1.O=C(O)C(F)(F)F [NCGC00345032-01]",
    "result": "YES"
  },
  {
    "compound": "COc1ccc(NC(=O)c2[nH]c(C)c(C(C)=O)c2C)cc1S(=O)(=O)Nc1ccccc1C#N [NCGC00348145-01]",
    "result": "YES"
  },
  {
    "compound": "O=C(O)CSc1cc(NS(=O)(=O)c2ccc(Br)cc2)c2ccccc2c1O [NCGC00386409-01]",
    "result": "YES"
  },
  {
    "compound": "Cl.O=[N+]([O-])c1cccc(CNc2ccc(S(=O)(=O)Nc3nccs3)cc2)c1O [NCGC00273554-01]",
    "result": "YES"
  },
  {
    "compound": "Nc1ccc(O)c([N+](=O)[O-])c1 [NCGC00091261-03]",
    "result": "YES"
  },
  {
    "compound": "Cc1cc2c(C(C)C)c(O)c(O)c(C=O)c2c(O)c1-c1c(C)cc2c(C(C)C)c(O)c(O)c(C=O)c2c1O [NCGC00261532-01]",
    "result": "YES"
  },
  {
    "compound": "CCC(=O)NC(c1cccs1)c1cc(Br)c2cccnc2c1O (stereo not shown) [NCGC00183689-01]",
    "result": "YES"
  },
  {
    "compound": "O=C(O)C(F)(F)F.Oc1cccc2c(-c3nnn[nH]3)ccnc12 [NCGC00183786-01]",
    "result": "YES"
  },
  {
    "compound": "CN(C(=O)CN(CCO)CC(=O)N(C)C(C)(C)Cc1ccccc1)C(C)(C)Cc1ccccc1 [NCGC00016382-07]",
    "result": "YES"
  },
  {
    "compound": "Cc1cc2nc3ccc(N(C)C)cc3[s+]c2cc1N.Cl.[Cl-] [NCGC00181775-02]",
    "result": "YES"
  },
  {
    "compound": "C[C@H](Cc1ccc(O)c(O)c1)[C@@H](C)Cc1ccc(O)c(O)c1 [NCGC00094201-01]",
    "result": "YES"
  },
  {
    "compound": "O=C(O)C(F)(F)F.O=C(c1ccc(F)cc1)c1no[n+]([O-])c1C(=O)c1ccc(F)cc1 [NCGC00351162-01]",
    "result": "YES"
  },
  {
    "compound": "COc1ccccc1C(=O)/C=C1/C(=O)Nc2ccc(C)cc21.O=C(O)C(F)(F)F [NCGC00481357-01]",
    "result": "YES"
  },
  {
    "compound": "CC1=C[C@@H]2[C@H]([C@@H](O)C[C@@]3(C)[C@H]2C[C@@H](C)[C@]3(O)C(=O)CO)[C@@]2(C)Cc3cnn(-c4ccccc4)c3C=C12 [NCGC00242505-01]",
    "result": "YES"
  }
]
